# credit: patent US11505581B2

Test system: PBMC
Experiment: ELISPOT (IFNγ, IL-5, IL-10, IL-17, IL-21) of PBMC expanded 14 days with Bla g extract, then stimulated with peptides or peptide pools
Type: cell-based, human
Set-up: key: spot forming cells (SFC) per 10^6 PBMC
Settings: non-redundant epitopes; sensitized donors
# maps each entry to its Average Magnitude of Response
Reported endpoint: Average Magnitude of Response

{"columns": ["Residue sequence", "System name", "Value measured"],
 "data": [
  ["KVIDLLLSLYLDQNE", "PBMC", 3.6],
  ["KNMTYVNTSLVLAFS", "PBMC", 8.4],
  ["QKKWDPLKKETIPYY", "PBMC", 7.7]
]}

* * *

System: PBMC
Test: ELISPOT (IFNγ, IL-5, IL-10, IL-17, IL-21) of PBMC expanded 14 days with Bla g extract, then stimulated with peptides or peptide pools
Format: cell-based, human
Design: key: spot forming cells (SFC) per 10^6 PBMC
Conditions: non-redundant epitopes; sensitized donors
# maps each entry to its Average Magnitude of Response

{"columns": ["Residue sequence", "System name", "Average Magnitude of Response"],
 "data": [
  ["SEVTALNRQIGGTPI", "PBMC", 3.9],
  ["LKYFNMGVQKFWAFD", "PBMC", 19.8],
  ["VFIGKFYTEFDMENN", "PBMC", 4.0]
]}
